Biological target: ERN1 (Homo sapiens)
Sequence (O75460 whole entry): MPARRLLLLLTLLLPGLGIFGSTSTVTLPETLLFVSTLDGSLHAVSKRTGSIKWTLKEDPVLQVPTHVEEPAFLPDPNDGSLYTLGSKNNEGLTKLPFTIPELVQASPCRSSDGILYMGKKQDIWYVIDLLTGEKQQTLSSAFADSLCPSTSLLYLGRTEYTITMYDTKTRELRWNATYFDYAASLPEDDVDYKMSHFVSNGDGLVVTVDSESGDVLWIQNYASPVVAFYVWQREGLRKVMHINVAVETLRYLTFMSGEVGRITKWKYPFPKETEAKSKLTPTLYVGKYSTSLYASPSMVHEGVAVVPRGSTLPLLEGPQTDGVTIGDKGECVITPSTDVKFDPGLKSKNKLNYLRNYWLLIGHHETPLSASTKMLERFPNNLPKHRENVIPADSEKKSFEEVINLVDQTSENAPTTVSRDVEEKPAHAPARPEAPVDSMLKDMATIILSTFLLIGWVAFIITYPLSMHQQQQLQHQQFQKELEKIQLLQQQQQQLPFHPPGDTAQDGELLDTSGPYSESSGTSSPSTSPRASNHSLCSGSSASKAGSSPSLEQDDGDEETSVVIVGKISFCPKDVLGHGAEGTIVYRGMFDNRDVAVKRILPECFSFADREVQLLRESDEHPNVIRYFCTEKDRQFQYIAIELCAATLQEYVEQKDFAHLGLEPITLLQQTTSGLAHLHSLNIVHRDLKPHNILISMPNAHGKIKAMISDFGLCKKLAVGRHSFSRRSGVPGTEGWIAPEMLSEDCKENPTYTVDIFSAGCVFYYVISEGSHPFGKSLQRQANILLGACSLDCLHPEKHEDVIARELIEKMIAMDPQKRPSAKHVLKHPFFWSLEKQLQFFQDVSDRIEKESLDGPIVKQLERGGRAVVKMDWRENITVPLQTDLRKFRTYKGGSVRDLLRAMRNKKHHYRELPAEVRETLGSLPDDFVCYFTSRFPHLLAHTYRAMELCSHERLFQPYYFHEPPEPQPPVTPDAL
Experiment: biochemical
Parameters: species or system HEK293/K-562/placenta mixed human extract; Kinobeads chemoproteomic competition binding, quantified by TMT LC-MS/MS, dose response up to 20 uM
reported-endpoint: IC50

Query IC50 on ERN1 (Homo sapiens) for COc1nc(N[C@H]2CC[C@H](NS(=O)(=O)CC(C)C)CC2)nc2[nH]nc(N3CCOC[C@H]3C)c12 [compound 39]
≥ 20 µM

* * *

Target: SYK (Homo sapiens, UniProt P43405)
Assay: biochemical
Set-up: species or system HEK293/K-562/placenta mixed human extract; Kinobeads chemoproteomic competition binding, quantified by TMT LC-MS/MS, dose response up to 20 uM
reported-endpoint: IC50

Consider the compound "COc1nc(N[C@H]2CC[C@H](NS(=O)(=O)CC(C)C)CC2)nc2[nH]nc(N3CCOC[C@H]3C)c12" and give its measured IC50.
≥ 20 µM
